What Kd was measured for each of the following?
# Target: T1, GFP-9S library array, motif 4 ND D124M (synthetic construct, D124M)
# T1 chain: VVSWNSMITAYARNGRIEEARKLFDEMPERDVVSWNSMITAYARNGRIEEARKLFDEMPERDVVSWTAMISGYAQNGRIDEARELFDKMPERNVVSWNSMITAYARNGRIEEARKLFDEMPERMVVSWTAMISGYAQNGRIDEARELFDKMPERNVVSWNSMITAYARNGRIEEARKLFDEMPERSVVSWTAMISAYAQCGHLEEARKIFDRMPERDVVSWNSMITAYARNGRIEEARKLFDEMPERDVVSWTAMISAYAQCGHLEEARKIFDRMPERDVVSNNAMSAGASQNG
# Protocol details: high-throughput RNA pulldown from lysate on Ni-NTA beads; HRP: 50 mM Tris pH 8, 150 mM NaCl, 1 mM beta-mercaptoethanol, 50 ug/ml BSA, 3 ug/ml yeast RNA, 0.5% heparin; ITC and FP: Tris pH 8, 200 mM KCl, 5% glycerol; MST: 50 mM Tris pH 8, 200 mM NaCl, 1 mM DTT, BSA, heparin, 0.05% Tween 20
# Stated conditions: tags: N-terminal His-eGFP; label: 5' IRDye 800CW
# value in nM; strip the unit string

# get_value(readout='Kd', item= AUUAUACGUGA (ssRNA) [IR-rpoA-U] )
21.2

Entry to check: AUUAAACGUGA (ssRNA) [IR-rpoA-A]
78.1
